FYI, the data here is from patent US20180099931A1.

Tgt: F508delCFTR (Homo sapiens, UniProt P13569, DEL508-508)
Construct: expressed in transfected cells; host or cells: CFBE41o- human lung-derived epithelial cells (CFBE4lo-F508delCFTR-HRP), doxycycline-inducible
Sequence (P13569 with tags, fused parts or gaps DEL508-508): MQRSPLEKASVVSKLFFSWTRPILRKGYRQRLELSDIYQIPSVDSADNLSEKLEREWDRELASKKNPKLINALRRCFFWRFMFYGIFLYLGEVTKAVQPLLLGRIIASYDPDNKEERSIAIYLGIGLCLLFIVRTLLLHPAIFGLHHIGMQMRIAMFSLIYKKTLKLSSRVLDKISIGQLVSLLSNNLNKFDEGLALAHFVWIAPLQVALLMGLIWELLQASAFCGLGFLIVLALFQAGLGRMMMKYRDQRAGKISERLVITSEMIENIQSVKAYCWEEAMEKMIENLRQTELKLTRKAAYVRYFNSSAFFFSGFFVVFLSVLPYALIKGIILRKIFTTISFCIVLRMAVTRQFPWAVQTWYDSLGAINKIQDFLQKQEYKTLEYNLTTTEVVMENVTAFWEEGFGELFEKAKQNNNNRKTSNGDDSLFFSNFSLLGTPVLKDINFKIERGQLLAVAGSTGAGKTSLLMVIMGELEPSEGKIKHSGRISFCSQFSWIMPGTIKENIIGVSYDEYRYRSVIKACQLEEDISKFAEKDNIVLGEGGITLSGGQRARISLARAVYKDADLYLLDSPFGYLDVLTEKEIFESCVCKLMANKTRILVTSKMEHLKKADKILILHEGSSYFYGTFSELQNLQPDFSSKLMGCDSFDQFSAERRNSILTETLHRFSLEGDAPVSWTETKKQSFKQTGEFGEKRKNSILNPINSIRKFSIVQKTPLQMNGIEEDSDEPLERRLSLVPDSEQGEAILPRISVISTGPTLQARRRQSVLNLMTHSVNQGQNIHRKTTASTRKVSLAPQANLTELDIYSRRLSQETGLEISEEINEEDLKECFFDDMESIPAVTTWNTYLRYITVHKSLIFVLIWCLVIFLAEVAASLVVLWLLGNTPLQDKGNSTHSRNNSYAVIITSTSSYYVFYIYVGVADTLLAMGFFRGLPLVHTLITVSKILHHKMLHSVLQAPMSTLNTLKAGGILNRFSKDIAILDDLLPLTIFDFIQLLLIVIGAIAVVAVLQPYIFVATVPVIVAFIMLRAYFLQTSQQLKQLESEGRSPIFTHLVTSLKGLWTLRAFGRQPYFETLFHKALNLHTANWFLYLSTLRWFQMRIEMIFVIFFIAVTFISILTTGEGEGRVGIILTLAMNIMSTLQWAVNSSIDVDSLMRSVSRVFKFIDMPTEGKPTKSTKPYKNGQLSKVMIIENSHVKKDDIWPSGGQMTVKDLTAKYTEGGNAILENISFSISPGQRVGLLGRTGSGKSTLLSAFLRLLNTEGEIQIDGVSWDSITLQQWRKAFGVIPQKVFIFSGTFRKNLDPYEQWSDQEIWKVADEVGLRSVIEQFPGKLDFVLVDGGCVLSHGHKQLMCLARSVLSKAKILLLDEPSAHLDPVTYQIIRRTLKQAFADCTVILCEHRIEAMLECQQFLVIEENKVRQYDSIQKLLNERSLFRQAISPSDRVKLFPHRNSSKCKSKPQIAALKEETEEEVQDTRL
Method: Cell Surface Expression-Horse Radish Peroxidase (CSE-HRP) Assay;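 note: percent of the 2 µM on-plate positive control corrector response above DMSO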
Type: cell-based
Condition context: without co-corrector; maximum at any tested concentration, normalized to on-plate positive control; read-out: Maximum % activity (without co-corrector)
Observable: Emax

Here's what some known entries look like.
Task: Answer with the recorded Emax of COc1ncc(C(F)(F)F)cc1CN[C@H]1[C@H](C23CC(C2)C3)[C@@H](C(=O)O)N(C(=O)C2CCCCC2)[C@H]1c1ccccc1 only.
Result: 100 to 200%

Task: Answer with the recorded Emax of COc1cnc(C(C)(C)C)cc1CN[C@H]1[C@H](C(C)(C)C)[C@@H](C(=O)O)N(C(=O)C2CCCCC2)[C@H]1c1ccccc1 only.
Result: 100 to 200%

Task: Answer with the recorded Emax of COc1ccc(OC(F)F)c(CN[C@@H]2[C@@H](C(C)(C)C)[C@H](C(=O)O)N(C(=O)C3CCCCC3)[C@@H]2c2ccccc2)c1 (racemic) only.
Result: < 100%

***
Task: Answer with the recorded Emax of Cc1cc(C(F)(F)F)nc(N[C@@H]2[C@@H](C(C)(C)C)[C@H](C(=O)O)N(C(=O)OC(C)C)[C@@H]2c2ccccc2)n1 (racemic) only.
Result: < 100%

Task: Answer with the recorded Emax of COc1ncc(C(F)(F)F)cc1CN[C@H]1[C@H](C(C)(C)C)[C@@H](C(=O)O)N(C(=O)C2CCCCC2)[C@H]1c1cccc2c1OC(C)(C)C2 only.
Result: 100 to 200%

Task: Answer with the recorded Emax of COc1ccc(C(C)(C)C)cc1CN[C@H]1[C@H](C(C)(C)C)[C@@H](C(=O)O)N(C(=O)C2CCCCC2)[C@H]1c1cccnc1OC only.
Result: > 200%
